Biological target: Alpha-2B adrenergic receptor (Homo sapiens, UniProt P18089)
Sequence (P18089 whole entry): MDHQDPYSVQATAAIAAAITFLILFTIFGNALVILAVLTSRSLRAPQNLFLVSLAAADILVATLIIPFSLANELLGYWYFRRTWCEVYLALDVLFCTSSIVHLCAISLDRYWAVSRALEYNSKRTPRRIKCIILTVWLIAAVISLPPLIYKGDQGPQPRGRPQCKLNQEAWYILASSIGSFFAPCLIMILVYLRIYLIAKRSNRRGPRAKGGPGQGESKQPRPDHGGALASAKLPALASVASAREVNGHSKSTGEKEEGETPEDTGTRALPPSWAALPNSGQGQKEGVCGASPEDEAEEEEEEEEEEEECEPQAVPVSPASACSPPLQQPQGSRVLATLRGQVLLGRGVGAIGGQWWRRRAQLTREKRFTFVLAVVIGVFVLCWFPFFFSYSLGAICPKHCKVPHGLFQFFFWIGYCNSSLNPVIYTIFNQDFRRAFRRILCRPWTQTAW
value.type: Ki

1) C[C@@H]1OC(=O)N(C(=O)NCCCN2CCC(c3ccc(F)cc3)CC2)[C@H]1c1ccc(F)c(F)c1; > 45 nM

----------
Biological target: Histamine H2 receptor (Homo sapiens, UniProt P25021)
Sequence (P25021 whole entry): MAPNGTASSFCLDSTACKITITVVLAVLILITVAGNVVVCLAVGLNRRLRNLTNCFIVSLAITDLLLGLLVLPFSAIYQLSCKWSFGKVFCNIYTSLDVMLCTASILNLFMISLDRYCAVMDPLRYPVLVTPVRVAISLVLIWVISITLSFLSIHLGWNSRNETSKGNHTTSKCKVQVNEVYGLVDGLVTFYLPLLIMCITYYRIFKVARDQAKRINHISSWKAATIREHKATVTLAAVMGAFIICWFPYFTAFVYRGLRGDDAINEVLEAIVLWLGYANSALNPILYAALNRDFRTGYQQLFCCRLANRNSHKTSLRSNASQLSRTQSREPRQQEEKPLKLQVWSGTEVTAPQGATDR
pKi: −log10 of the molar value.
value.type: pKi

1. C[C@@H]1OC(=O)N(C(=O)NCCCN2CCC(c3ccc(F)cc3)CC2)[C@H]1c1ccc(F)c(F)c1; < 6.00

----------
Test: Half-life in rat
Assay type: ADME, organism-based
Conditions: in vivo
value.type: half-life (h)

1) C[C@@H]1OC(=O)N(C(=O)NCCCN2CCC(c3ccc(F)cc3)CC2)[C@H]1c1ccc(F)c(F)c1; 6

----------
Assay: Half-life in dog
Type: ADME, organism-based, Canis lupus familiaris
Settings: in vivo
value.type: half-life

1. C[C@@H]1OC(=O)N(C(=O)NCCCN2CCC(c3ccc(F)cc3)CC2)[C@H]1c1ccc(F)c(F)c1; > 12 h

----------
Test: Oral bioavailability in rat
Assay type: ADME, organism-based
Details: in vivo
value.type: bioavailability (%)

1) C[C@@H]1OC(=O)N(C(=O)NCCCN2CCC(c3ccc(F)cc3)CC2)[C@H]1c1ccc(F)c(F)c1; 25

----------
Target: 5-hydroxytryptamine receptor 1B (Homo sapiens)
Sequence (P28222 whole entry): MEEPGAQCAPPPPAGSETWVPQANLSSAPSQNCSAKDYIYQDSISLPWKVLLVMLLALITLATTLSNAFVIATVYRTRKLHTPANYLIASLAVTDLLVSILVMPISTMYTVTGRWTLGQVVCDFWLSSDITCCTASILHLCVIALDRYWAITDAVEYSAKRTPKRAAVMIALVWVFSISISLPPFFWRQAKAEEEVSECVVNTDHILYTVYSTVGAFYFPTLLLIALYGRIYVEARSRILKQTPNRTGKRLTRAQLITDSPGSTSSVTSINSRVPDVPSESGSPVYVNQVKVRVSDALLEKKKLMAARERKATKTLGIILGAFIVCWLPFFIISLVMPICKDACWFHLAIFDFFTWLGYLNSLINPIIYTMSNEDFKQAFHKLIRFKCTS
pKi: −log10 of the molar value.
value.type: pKi

1) C[C@@H]1OC(=O)N(C(=O)NCCCN2CCC(c3ccc(F)cc3)CC2)[C@H]1c1ccc(F)c(F)c1; < 6.30

----------
Molecular target: UniProt:P15823
Sequence (P15823 whole entry): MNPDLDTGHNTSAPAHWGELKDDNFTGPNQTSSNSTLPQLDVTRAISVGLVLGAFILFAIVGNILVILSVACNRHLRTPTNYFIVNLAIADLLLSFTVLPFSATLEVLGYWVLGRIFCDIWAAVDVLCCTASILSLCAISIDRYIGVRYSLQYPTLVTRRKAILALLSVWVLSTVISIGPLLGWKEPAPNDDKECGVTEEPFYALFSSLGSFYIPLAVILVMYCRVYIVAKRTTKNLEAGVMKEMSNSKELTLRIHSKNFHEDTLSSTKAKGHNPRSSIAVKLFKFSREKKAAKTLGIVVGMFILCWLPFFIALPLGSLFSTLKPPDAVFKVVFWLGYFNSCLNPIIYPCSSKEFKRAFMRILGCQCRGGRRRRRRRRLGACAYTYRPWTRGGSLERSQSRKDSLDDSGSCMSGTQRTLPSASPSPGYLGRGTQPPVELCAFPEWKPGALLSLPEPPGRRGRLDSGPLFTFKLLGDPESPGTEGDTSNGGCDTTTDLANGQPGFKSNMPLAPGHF
value.type: Ki (nM)

1. C[C@@H]1OC(=O)N(C(=O)NCCCN2CCC(c3ccc(F)cc3)CC2)[C@H]1c1ccc(F)c(F)c1; 79
